- Experimental target: human Melanocortin-4 receptor (MC4R) (Homo sapiens (Human), UniProt P32245)
- Sequence (P32245 whole entry): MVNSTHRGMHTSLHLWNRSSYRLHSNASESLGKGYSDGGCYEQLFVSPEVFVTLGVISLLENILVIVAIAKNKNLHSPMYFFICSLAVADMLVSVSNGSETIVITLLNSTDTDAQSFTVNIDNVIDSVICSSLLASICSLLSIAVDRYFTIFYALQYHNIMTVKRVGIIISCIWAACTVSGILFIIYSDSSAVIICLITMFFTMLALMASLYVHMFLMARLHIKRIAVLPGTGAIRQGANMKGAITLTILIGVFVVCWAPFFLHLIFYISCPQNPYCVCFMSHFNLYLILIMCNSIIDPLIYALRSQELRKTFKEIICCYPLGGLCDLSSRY
- Protocol text: Functional in vitro MC4R antagonist potency assay (intracellular cAMP, HTRF, CHO cells)
- Assay type: cell-based
- Conditions: cAMP after EC80 agonist stimulation (200 nM αMSH); Kb from IC50 by Leff-Dougall equation; read-out: Kb (nM) Antagonist geometric mean
- Experimental: The functional in vitro antagonist potency for test compounds was determined by monitoring intracellular cyclic adenosine monophosphate (cAMP) levels in Chinese hamster ovary (CHO—) cells stably expressing the human Melanocortin-4 receptor (MC4R). […] Intracellular cAMP levels are quantitated using a homogenous assay utilizing the Homogeneous Time-Resolved Fluorescence (HTRF) technology from CisBio. […]
// assign Y if Kb falls strictly below 4 nM, else N (ties count as N)

>>> class_name("COc1cc([C@@H](C)C(=O)N2CC[C@H](Nc3ccc(-c4ncccn4)c(C)n3)C2)c(Cl)cn1 [Example 6]")
"Y"
>>> class_name("COc1cc([C@@H](C)C(=O)N2CC[C@H](Nc3ccc(-c4nnn(C)n4)c(C)n3)C2)c(Cl)cn1 [Example 1]")
"N"
>>> class_name("[2H]C([2H])([2H])n1nc(-c2ccc(N[C@H]3CCN(C(=O)[C@H](C)c4cc(OC)ncc4F)C3)nc2C)nc1C(F)(F)F [Example 42]")
"N"

Consider the additional compound presented here.
Q: Is Kb of COc1cc([C@@H](C)C(=O)N2CC[C@H](Nc3ccc(-c4nc(C(F)F)n(C5CC5)n4)c(C)n3)C2)c(F)cn1 [Example 8] strictly below 4 nM?
Ans: N
